# SYSTEM NAME: ER-β (Gen Bank Accession #X99101) (Homo sapiens)
# Construct: made in house; host or cells: in vitro transcription/translation, TNT T7 Quick-Coupled reticulocyte lysate (Promega Cat.#L1170)
# Sequence (Q92731 54-530 limits assumed): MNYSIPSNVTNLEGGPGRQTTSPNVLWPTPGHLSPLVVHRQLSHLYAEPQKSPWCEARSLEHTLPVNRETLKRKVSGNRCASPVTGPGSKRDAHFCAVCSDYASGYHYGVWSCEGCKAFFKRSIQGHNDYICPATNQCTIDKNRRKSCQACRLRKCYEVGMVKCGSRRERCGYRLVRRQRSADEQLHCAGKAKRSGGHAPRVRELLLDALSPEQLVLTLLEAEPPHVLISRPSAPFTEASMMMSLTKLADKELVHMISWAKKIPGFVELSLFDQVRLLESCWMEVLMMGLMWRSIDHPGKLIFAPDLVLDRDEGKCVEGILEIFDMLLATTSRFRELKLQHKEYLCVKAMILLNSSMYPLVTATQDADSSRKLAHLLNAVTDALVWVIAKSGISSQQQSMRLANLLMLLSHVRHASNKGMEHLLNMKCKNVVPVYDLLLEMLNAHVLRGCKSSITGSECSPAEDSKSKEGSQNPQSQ
# PROTOCOL TEXT: Estrogen receptor binding, competition with [125I]-estradiol, ER-β
# CONDITIONS: competition with 150 pM [125I]-estradiol; receptor-programmed reticulocyte lysate; overnight at 4° C.; Cheng-Prushoff from IC50; read-out: ER-β Ki
pKi: −log10 of the molar value.
ENDPOINT NAME: pKi

a = O=c1c(-c2ccc(O)cc2)c(C(F)(F)F)oc2cc(O)ccc12
b = O=c1c(-c2cccs2)coc2cc(O)cc(O)c12
c = O=c1c(-c2ccc(Br)cc2)coc2cc(O)cc(O)c12
d = O=c1c(-c2ccc(Cl)cc2)coc2cc(O)cc(O)c12
e = Oc1ccc(C2COc3cc(O)ccc3C2)cc1 (stereo not shown)
Put these in order: smallest pKi first, largest last. Provide your answer as the labels ordered per the instruction.
d, c, a, b, e

1 = O=c1c(-c2ccc(O)c(F)c2)coc2cc(O)ccc12
2 = O=c1c(-c2ccccc2)c(-c2ccccc2)oc2cc(O)ccc12
Return label of the item with the larger pKi. Candidates: 1 , 2 . Lab log: write the label of the selected item as the result.
1
(1: 8.48, 2: 7.72)

P = C=CCc1cc(-c2coc3cc(O)cc(O)c3c2=O)ccc1O
Q = O=c1c(-c2ccc3c(c2)OCO3)coc2cc(O)cc(O)c12
// select label with min value of measured pKi from [ P , Q ] Lab log: write the label of the selected item as the result.
Q
(Q: 7.66, P: 8.49)

====

# SYSTEM NAME: ER-α (Gen Bank Accession #M12674) (Homo sapiens)
# Construct: made in house; host or cells: in vitro transcription/translation, TNT T7 Quick-Coupled reticulocyte lysate (Promega Cat.#L1170)
# Sequence (P03372 1-595): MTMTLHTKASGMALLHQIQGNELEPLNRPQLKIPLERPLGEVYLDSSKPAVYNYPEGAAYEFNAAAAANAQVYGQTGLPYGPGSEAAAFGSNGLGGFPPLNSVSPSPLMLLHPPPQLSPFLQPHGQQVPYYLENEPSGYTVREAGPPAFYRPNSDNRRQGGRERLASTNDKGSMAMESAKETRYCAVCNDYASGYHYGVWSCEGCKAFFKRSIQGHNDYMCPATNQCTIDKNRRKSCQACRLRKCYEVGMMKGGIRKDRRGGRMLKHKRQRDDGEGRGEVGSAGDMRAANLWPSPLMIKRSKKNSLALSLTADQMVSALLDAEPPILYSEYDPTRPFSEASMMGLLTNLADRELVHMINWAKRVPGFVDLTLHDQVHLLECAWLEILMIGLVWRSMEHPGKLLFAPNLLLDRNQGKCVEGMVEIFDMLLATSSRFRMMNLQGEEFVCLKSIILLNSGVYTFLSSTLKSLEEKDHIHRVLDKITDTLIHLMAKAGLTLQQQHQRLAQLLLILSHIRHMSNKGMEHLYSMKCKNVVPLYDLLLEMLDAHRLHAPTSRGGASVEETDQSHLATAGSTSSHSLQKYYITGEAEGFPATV
# PROTOCOL TEXT: Estrogen receptor binding, competition with [125I]-estradiol, ER-α
# CONDITIONS: competition with 150 pM [125I]-estradiol; receptor-programmed reticulocyte lysate; overnight at 4° C.; Cheng-Prushoff from IC50; read-out: ER-α Ki
pKi: −log10 of the molar value.
Reported pKi values are given for each entry in this list.

INSERT INTO measurements (compound, system_name, endpoint_result) VALUES
  ('O=C1CC(c2ccc(O)cc2)Cc2ccc(O)cc21 (stereo not drawn) [compound 37]', 'ER-α (Gen Bank Accession #M12674) (Homo sapiens)', 7.12),
  ('O=c1c(-c2ccsc2)coc2cc(O)cc(O)c12 [compound 18]', 'ER-α (Gen Bank Accession #M12674) (Homo sapiens)', '< 5.52');

Lab note: next compound to report on.
Look up and state reported pKi for O=c1c(-c2ccc(O)c(F)c2)coc2cc(O)ccc12 [compound 24]
< 5.52

# credit: patent US6518301B1
